The entries below come with measured Ki values attached.
Target: biotin protein ligase from S. aureus (SaBPL) (Staphylococcus aureus, UniProt A0A3A5LBF0)
Sequence (A0A3A5LBF0 1-323): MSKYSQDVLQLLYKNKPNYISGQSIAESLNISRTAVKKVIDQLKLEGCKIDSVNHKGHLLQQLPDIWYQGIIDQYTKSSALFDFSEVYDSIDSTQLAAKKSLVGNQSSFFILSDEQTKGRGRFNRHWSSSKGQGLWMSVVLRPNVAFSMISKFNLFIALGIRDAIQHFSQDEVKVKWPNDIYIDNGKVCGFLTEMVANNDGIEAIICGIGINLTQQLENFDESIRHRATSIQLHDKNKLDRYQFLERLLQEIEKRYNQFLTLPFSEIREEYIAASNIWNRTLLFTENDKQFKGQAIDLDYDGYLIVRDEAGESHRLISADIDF
Experiment: BPL enzyme inhibition assay (3H-biotin incorporation), SaBPL
Assay type: biochemical
Record the value in nM, omitting the unit from your answer.

Observe how each entry below is paired with its result.
[[record]]
smiles_str = "CC1(C)O[C@@H]2[C@H](O1)[C@@H](n1cnc3c(N)ncnc31)O[C@H]2Cn1cc(CCCC[C@@H]2SC[C@@H]3NC(=O)N[C@@H]32)nn1"
property_label = "Ki"
recorded_measurement = 7530

[[record]]
smiles_str = "Nc1ncnc2c1ncn2CCCCCn1cc(CCCC[C@@H]2SC[C@@H]3NC(=O)N[C@@H]32)nn1"
property_label = "Ki"
recorded_measurement = 2860


From here, focus on the item given below.
Identify measured Ki corresponding to Cc1ccc2oc(=O)n(CCCCc3noc(CCCCC[C@@H]4SC[C@@H]5NC(=O)N[C@@H]54)n3)c2c1
2200
